- Tested on: Lacrimispora sphenoides
- measurement protocol: Antibacterial activity against Clostridium sphenoides isolated from patient with diabetic foot infection assessed as percent resistant isolates after 44 to 48 hrs by agar dilution method
- Format: functional
Reported Activity values are given for each entry in this list.
Response body: numeric value in %, unit text excluded.

Worked examples, 3 molecules total:
[
  {
    "molecule": "CCC[C@@H]1C[C@@H](C(=O)N[C@@H]([C@H]2O[C@H](SC)[C@H](O)[C@@H](O)[C@H]2O)[C@H](C)Cl)N(C)C1",
    "output unit": "%",
    "Activity": 23
  },
  {
    "molecule": "C[C@@H](O)[C@H]1C(=O)N2C(C(=O)O)=C(S[C@@H]3CN[C@H](C(=O)N(C)C)C3)[C@H](C)[C@H]12",
    "output unit": "%",
    "Activity": 0
  },
  {
    "molecule": "C[C@@H](O)[C@H]1C(=O)N2C(C(=O)O)=C(S[C@@H]3CN[C@H](CNS(N)(=O)=O)C3)[C@H](C)[C@H]12",
    "output unit": "%",
    "Activity": 0
  }
]

State its Activity for this molecule: C[C@@H](O)[C@H]1C(=O)N2C(C(=O)O)=C(S[C@@H]3CN[C@H](C(=O)Nc4cccc(C(=O)O)c4)C3)[C@H](C)[C@H]12
0

Could you please provide reported Activity for C[C@@H](O)[C@H]1C(=O)N2C(C(=O)O)=C(SCCNC=N)C[C@H]12 [IMIPENEM ANHYDROUS] ? Thanks!
0

Given Cc1ncc([N+](=O)[O-])n1CCO , respond with its Activity.
0

---

- Tested on: Enterocloster clostridioformis
- measurement protocol: Antibacterial activity against Clostridium clostridioforme isolated from patient with diabetic foot infection after 44 to 48 hrs by agar dilution method
- Assay type: functional
Entries annotated with measured MIC50
Your answer should be a plain number; it is taken to be in µg/mL.

Worked set:
[
  {
    "compound": "C[C@@H](O)[C@H]1C(=O)N2C(C(=O)O)=C(S[C@@H]3CN[C@H](C(=O)N(C)C)C3)[C@H](C)[C@H]12 [MEROPENEM]",
    "MIC50 [µg/mL]": 0.06
  },
  {
    "compound": "CCC[C@@H]1C[C@@H](C(=O)N[C@@H]([C@H]2O[C@H](SC)[C@H](O)[C@@H](O)[C@H]2O)[C@H](C)Cl)N(C)C1 [CLINDAMYCIN]",
    "MIC50 [µg/mL]": 0.5
  },
  {
    "compound": "C[C@@H](O)[C@H]1C(=O)N2C(C(=O)O)=C(S[C@@H]3CN[C@H](C(=O)Nc4cccc(C(=O)O)c4)C3)[C@H](C)[C@H]12 [ERTAPENEM]",
    "MIC50 [µg/mL]": 0.25
  },
  {
    "compound": "C[C@@H](O)[C@H]1C(=O)N2C(C(=O)O)=C(SCCNC=N)C[C@H]12 [IMIPENEM ANHYDROUS]",
    "MIC50 [µg/mL]": 0.25
  },
  {
    "compound": "C[C@@H](O)[C@H]1C(=O)N2C(C(=O)O)=C(S[C@@H]3CN[C@H](CNS(N)(=O)=O)C3)[C@H](C)[C@H]12 [DORIPENEM]",
    "MIC50 [µg/mL]": 0.06
  }
]

Name the recorded MIC50 of the item Cc1ncc([N+](=O)[O-])n1CCO [METRONIDAZOLE] in your answer.
0.125
